Reported koff by item:
Target: T1, human VEGF (hVEGF) (human, UniProt P15692 181-395)
T1 construct: also called VEGF-A
T1 sequence: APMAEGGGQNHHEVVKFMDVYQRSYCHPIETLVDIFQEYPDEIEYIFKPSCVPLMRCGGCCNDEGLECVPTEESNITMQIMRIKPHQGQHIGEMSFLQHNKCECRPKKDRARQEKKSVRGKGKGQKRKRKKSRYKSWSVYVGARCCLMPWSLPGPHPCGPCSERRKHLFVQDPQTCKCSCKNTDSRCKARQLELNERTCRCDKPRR
Experiment: SPR single-cycle
Quick note: give the figure in s⁻¹, leave out the unit.

These recorded examples may help you get a feel for the data.
[[record]]
binder = "G6.31 LC-Q37A (Fab, V domains shown, Fab) VH: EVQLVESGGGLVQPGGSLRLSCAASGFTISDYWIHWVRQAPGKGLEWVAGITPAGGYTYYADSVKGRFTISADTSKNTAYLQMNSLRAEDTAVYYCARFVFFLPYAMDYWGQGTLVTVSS VL: DIQMTQSPSSLSASVGDRVTITCRASQDVSTAVAWYAQKPGKAPKLLIYSASFLYSGVPSRFSGSGSGTDFTLTISSLQPEDFATYYCQQGYGNPFTFGQGTKVEIK"
reading_unit = "s⁻¹"
readout_number = 0.000515

[[record]]
binder = "G6.31 LC-Q89T (Fab, V domains shown, Fab) VH: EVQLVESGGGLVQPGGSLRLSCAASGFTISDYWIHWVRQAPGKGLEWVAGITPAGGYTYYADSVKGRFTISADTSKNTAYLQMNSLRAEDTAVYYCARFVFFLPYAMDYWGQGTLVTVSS VL: DIQMTQSPSSLSASVGDRVTITCRASQDVSTAVAWYQQKPGKAPKLLIYSASFLYSGVPSRFSGSGSGTDFTLTISSLQPEDFATYYCTQGYGNPFTFGQGTKVEIK"
reading_unit = "s⁻¹"
readout_number = 0.000493


Returns the measured koff for the input binder. Input: G6.31 LC-D28R (Fab, V domains shown, Fab) VH: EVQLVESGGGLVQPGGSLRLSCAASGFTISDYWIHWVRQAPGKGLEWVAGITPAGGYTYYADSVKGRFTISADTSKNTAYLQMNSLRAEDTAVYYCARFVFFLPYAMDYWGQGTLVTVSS VL: DIQMTQSPSSLSASVGDRVTITCRASQRVSTAVAWYQQKPGKAPKLLIYSASFLYSGVPSRFSGSGSGTDFTLTISSLQPEDFATYYCQQGYGNPFTFGQGTKVEIK 0.000655
